- tested.target: mouse serum albumin (MSA) (Mus musculus, UniProt P07724)
- Sequence (P07724 25-608): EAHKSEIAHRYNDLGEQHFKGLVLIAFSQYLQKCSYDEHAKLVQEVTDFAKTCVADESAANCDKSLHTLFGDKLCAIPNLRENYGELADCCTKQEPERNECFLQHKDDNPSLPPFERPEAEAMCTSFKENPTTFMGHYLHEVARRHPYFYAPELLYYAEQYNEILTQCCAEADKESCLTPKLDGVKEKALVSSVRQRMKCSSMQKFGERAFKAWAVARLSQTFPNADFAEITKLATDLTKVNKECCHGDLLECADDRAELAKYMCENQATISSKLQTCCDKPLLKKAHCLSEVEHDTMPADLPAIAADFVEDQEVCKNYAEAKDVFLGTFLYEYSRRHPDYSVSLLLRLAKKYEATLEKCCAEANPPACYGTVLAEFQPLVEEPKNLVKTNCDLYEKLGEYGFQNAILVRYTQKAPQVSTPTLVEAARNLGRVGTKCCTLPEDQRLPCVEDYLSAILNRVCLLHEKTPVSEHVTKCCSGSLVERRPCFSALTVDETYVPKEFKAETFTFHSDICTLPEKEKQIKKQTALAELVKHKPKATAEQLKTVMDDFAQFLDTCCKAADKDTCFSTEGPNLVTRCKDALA
- run.description: Presaturation equilibrium dialysis, fraction unbound in mouse serum albumin solution
- condition.details: 4% mouse serum albumin in PBS, 5 μM PFAS, value (CV)
readout: Fraction Unbound (fu) and Coefficient of Variance (CV), MSA

• O=S(=O)(O)CCC(F)(F)C(F)(F)C(F)(F)C(F)(F)C(F)(F)C(F)(F)F [6:2 FtS, 6:2 fluorotelomer sulfonate] = 0.0113(9%)
• O=C(O)C(F)(F)C(F)(F)C(F)(F)C(F)(F)C(F)(F)C(F)(F)C(F)(F)C(F)(F)C(F)(F)F [PFDA, perfluorodecanoic acid] = 0.00102(26%)
• O=C(O)C(F)(F)C(F)(F)C(F)(F)C(F)(F)F [PFPA, perfluoropentanoic acid] = 0.0987(11%)

Test system mouse serum albumin (MSA) (Mus musculus, UniProt P07724); read-out Fraction Unbound (fu) and Coefficient of Variance (CV), MSA; what value for O=C(O)C(F)(F)C(F)(F)C(F)(F)F [PFBA, Perfluorobutanoic acid] ?
0.24(22%)

Test system mouse serum albumin (MSA) (Mus musculus, UniProt P07724); read-out Fraction Unbound (fu) and Coefficient of Variance (CV), MSA; what value for O=S(=O)(O)C(F)(F)C(F)(F)C(F)(F)C(F)(F)C(F)(F)C(F)(F)C(F)(F)C(F)(F)F [PFOS, perfluorooctanesulfonic acid] ?
0.00126(19%)

Test system mouse serum albumin (MSA) (Mus musculus, UniProt P07724); read-out Fraction Unbound (fu) and Coefficient of Variance (CV), MSA; what value for O=S(=O)(O)C(F)(F)C(F)(F)C(F)(F)C(F)(F)F [PFBS, perfluorobutanesulfonic acid] ?
0.0396(11%)
